Experiment: Inhibition of H(+)/K(+) ATPase
readout-kind: pIC50

Cc1cccc(C)c1-c1ccc(O)c(-c2nc(C)c(C)[nH]2)c1 :: 5.7
Cc1cccc(C)c1CNc1cccc(-c2nc(C)c(C)[nH]2)c1 :: 4.3
COc1ncccc1-c1cc(-c2nc(C)c(C)[nH]2)cc(-c2c(C)cccc2C)c1 :: 4.8

P. COc1ccc(-c2c(C)cccc2C)cc1-c1nc(C)c(C)[nH]1
Q. Cc1nc(-c2ccccc2-c2ccccc2)[nH]c1C
Input: // compare measured pIC50, left P , right Q , return larger Return value: the label identifying the chosen record.
Output: P
(P: 6.1, Q: 4.2)

###

Assay: Inhibition of H(+)/K(+) ATPase
readout-kind: pIC50

Cc1cccc(C)c1-c1cccc(-c2cn(C)c(C)n2)c1 :: 4.8
CCCn1c(-c2cc(-c3c(C)cccc3C)ccc2OC)nc(C)c1C :: 4.9
Cc1nc(-c2cccc(C(=O)Nc3ccccc3)c2)[nH]c1C :: 4
Cc1cccc(C)c1-c1cc(-c2nc(C)c(C)[nH]2)cs1 :: 4.5
Cc1cccc(C)c1-c1ccc(OCc2ccccc2)c(-c2nc(C)c(C)[nH]2)c1 :: 5.3
Cc1cccc(C)c1-c1ccc(OC(F)F)c(-c2nc(C)c(C)[nH]2)c1 :: 5
CCCn1ccnc1-c1cccc(-c2c(C)cccc2C)c1 :: 4.3
CCOc1ccc(-c2c(C)cccc2C)cc1-c1nc(C)c(C)[nH]1 :: 5.6
COc1c(-c2c(C)cccc2C)cc2ccoc2c1-c1nc(C)c(C)[nH]1 :: 5.4
Cc1cccc(C)c1Nc1cccc(-c2nc(C)c(C)[nH]2)c1 :: 4.9
Cc1cccc(C)c1-c1cccc(-c2nc3ccccc3[nH]2)c1 :: 4.4
Cc1cccc(C)c1-c1ccc(-c2nc(C)c(C)[nH]2)o1 :: 4.9
CCc1cccc(CC)c1-c1cccc(-c2nc(C)c(C)[nH]2)c1 :: 5.1
Cc1cccc(C)c1-c1ccc(-c2nc(C)c(C)[nH]2)s1 :: 4.1
Cc1cccc(C)c1-c1ccc(-c2nc(C)c(C)[nH]2)cc1 :: 4.4
Cc1cccc(C)c1-c1cccc(-c2nc(C)c(C)n2C)c1 :: 4.6
COc1c(-c2c(C)cccc2C)cc2c(c1-c1nc(C)c(C)[nH]1)OCC2 :: 5.5
Cc1nc(-c2cccc(CCc3ccccc3)c2)[nH]c1C :: 4.3
COC(=O)COc1ccc(-c2c(C)cccc2C)cc1-c1nc(C)c(C)[nH]1 :: 5.9
Cc1cccc(C)c1-c1cccc(-c2cc(N)ccn2)c1 :: 4.5
CNCc1cccc(-c2c(C)cccc2C)c1 :: 4.3
Cc1nc(-c2cccc(-c3ccccc3)c2)[nH]c1C :: 4.7
Cc1nc(-c2cccc(/C=C/c3ccccc3)c2)[nH]c1C :: 4.4
Cc1cccc(C)c1-c1cccc(-c2cncn2C)c1 :: 4.4
Cc1cccc(C)c1-c1ccc(OCC(N)=O)c(-c2nc(C)c(C)[nH]2)c1 :: 5.7
Cc1ccccc1-c1cccc(-c2nc(C)c(C)[nH]2)c1 :: 5.1
Cc1cccc(C)c1-c1cccc(N2CCN(C)CC2)c1 :: 4.4
Cc1cscc1-c1cccc(-c2nc(C)c(C)[nH]2)c1 :: 4.8
Cc1cccc(C)c1-c1cccc(-c2ncc[nH]2)c1 :: 4.5
Cc1ccc(-c2nc(C)c(C)[nH]2)cc1-c1c(C)cccc1C :: 4.9
COc1ccc(-c2nc(C)c(C)[nH]2)cc1-c1c(C)cccc1C :: 4.9
COc1cc(-c2c(C)cccc2C)cc(-c2nc(C)c(C)[nH]2)c1OC :: 4.6
Cc1cccc(C)c1-c1cccc(-c2nc(C)c(C)[nH]2)c1 :: 5.2
Cc1cccc(C)c1-c1cccc(-c2nccn2C)c1 :: 5.2
CCc1nc(-c2cccc(-c3c(C)cccc3C)c2)[nH]c1CC :: 4.8
